Assay: TROY pathway blockers in reporter cells – Q293 LMP1-TROYcd cells, NF-kB luciferase, uHTS, primary screen (AID 1347056)
Details: 4 h, at 10 µM, stronger effect = higher value
The campaign covered roughly 360,000 compounds. About 3,600 (1%) were called active. This is one part of a sample in which actives are shown more often than they occur.
Measured attribute: inhibition (%)
Number only, in %; omit the unit.

Qu. Return inhibition (reported value) for this compound: CC(=O)Nc1ccc(NC(=O)C(C)OC(=O)c2ccccc2C(=O)c2ccc(Cl)c([N+](=O)[O-])c2)cc1 (stereo not given)
Ans. 51

Qu. Supply recorded inhibition for CC1(Cc2ccccc2C#N)C(=O)Nc2ccc(-c3ccc4[nH]ccc4c3)cc21 (stereo not given) here.
Ans. 24.8

Qu. Name the recorded inhibition of the compound listed here: NS(=O)(=O)c1cccc(NC(=O)COC(=O)c2cc([N+](=O)[O-])ccc2N2CCCC2)c1
Ans. -3.22

Qu. Please report inhibition for the following compound: CN(CCC(=O)Nc1cc(S(=O)(=O)N(C)C)ccc1Cl)CC(=O)Nc1ccc(F)cc1
Ans. 1.42

Qu. Supply measured inhibition of CCOc1cc(/C=C(/C#N)c2ccc(Cl)cc2)cc(Cl)c1OCC(=O)O in your reply.
Ans. 70.8

Qu. Indicate its recorded inhibition; the compound in question is COCCN(Cc1cc2cc3c(cc2nc1Cl)OCO3)C(=O)c1cccc(C)c1
Ans. 19.8

Qu. Determine its reported inhibition: COc1cccc(NC(=O)Nc2ccc(F)cc2)c1
Ans. -52.4

Qu. Tell me inhibition reported for Cc1nc2sccn2c(=O)c1S(=O)(=O)NCCc1ccccc1
Ans. -4.17

Qu. Provide measured inhibition value, entry: COc1cc(/C=C(/NC(=O)c2ccc(Cl)cc2Cl)C(=O)O)cc(OC)c1OC
Ans. 18.8

Qu. Query inhibition for Cc1ccc(NC(=O)Nc2ccc3oc(C)nc3c2)cc1
Ans. -27.6

###

Assign inhibition to each entry below.
Assay: TROY pathway blockers in reporter cells – Q293 LMP1-TROYcd cells, NF-kB luciferase, uHTS, primary screen (AID 1347056)
Conditions: 4 h, at 10 µM, stronger effect = higher value
Hit rate of the full screen: of about 360,000 compounds, about 3,600 (1%) were called active. The list comes from a sample in which actives are over-represented; it also holds close analogues and randomly drawn compounds.
Numeric answer only, unit % assumed.

Qu. Identify the reported inhibition for the following entry. CCCCCCCNc1nc(Cl)nc(NCCO)n1
Ans. 4.41

Qu. Please give the documented inhibition of Cc1ccc(Cc2c(-c3ccc(C)cc3)nc3c4ccccc4ccn23)cc1
Ans. 54.4

Qu. Give me measured inhibition, please, for this molecule: O=C(Nc1ccc(-n2ccnc2P(=O)(O)c2ccccc2)cc1)c1ccccc1Br
Ans. -20.5

Qu. Identify inhibition associated with the molecule COCCCNC(=O)CNC(=S)N(Cc1cc(OC)c(OC)c(OC)c1)C1CCCC1
Ans. 10.9

Qu. Give inhibition for c1ccc(Cc2c(-c3ccco3)nc3c4ccccc4ccn23)cc1
Ans. 3.44

Qu. Report measured inhibition; entry is CN1CCN(C(=O)c2ccc(-c3ccc(Br)cc3)o2)CC1
Ans. -59.3

Qu. Output inhibition of Cc1ccc(OCCCC(=O)Nc2ccc3c(c2)OCCO3)cc1
Ans. 17.8

Qu. Return inhibition (reported value) for this molecule: N#CC(C(N)=O)=C1CCC2(CC1)OCCCCO2
Ans. -8.85

Qu. Return reported inhibition. Input molecule: COc1ccccc1NC(=S)N1CCN(C(c2ccccc2)c2ccccc2)CC1
Ans. 16.1

Qu. Using known records, supply inhibition for COC(=O)CCNc1ccc2c(c1)OCCO2
Ans. 78.2

Qu. Output measured inhibition for this item: CN(CCO)c1ccc(/C=N/Nc2nncc3ccccc23)cc1
Ans. -22.8

Qu. Quickly give me recorded inhibition for C=CC[n+]1c(-c2ccc(C)cc2)csc1NNC(=O)Nc1ccccc1
Ans. 25.5

Qu. Give reported inhibition value for Cn1c(-c2ccc(F)cc2)cc2onc(-c3ccccc3Cl)c2c1=O
Ans. 6.78

Qu. Entry O=C(Cc1coc2ccc3ccccc3c12)NCc1cccs1 needs its inhibition filled in; supply it.
Ans. -38.6

Qu. Let me know recorded inhibition for CC(C)(C)c1ccc(Oc2ccc(N)cc2)cc1 , thanks.
Ans. 86.2

Qu. Given Cc1cccc(N2CCN(C(c3ccccc3)c3nnnn3CC3CCCO3)CC2)c1C (stereo not drawn) , respond with its inhibition.
Ans. -7.74

Qu. For the molecule Cc1ccc(Cc2c(-c3ccc(Cl)cc3)nc3c4ccccc4ccn23)cc1 , report inhibition.
Ans. 4.34

Qu. Complete the entry with inhibition for CC(C)(C)c1nc2ccccc2c(=O)n1N1C(=O)c2ccccc2C1=O
Ans. 12.4

Qu. Could you please provide reported inhibition for O=C(NCc1cccs1)c1cc(-c2ccccn2)nc2ccc(Br)cc12 ? Thanks!
Ans. -12.5

Qu. Return reported inhibition. Input molecule: CN(C(=O)Nc1ccc(Cl)cc1)n1cnc2ccccc2c1=O
Ans. -48.7

Qu. For CCOc1ccc(NCCC(=O)c2ccc3c(c2)OCO3)cc1 , write its inhibition.
Ans. 9.47

Qu. Specify measured inhibition for O=C(NC(=S)Nc1cc(C(F)(F)F)ccc1N1CCOCC1)c1ccc(-c2cccc(Cl)c2)o1 .
Ans. -13.2

Qu. Give the value of inhibition reported for the following: O=c1c2ccccc2c(-c2ccc(F)cc2)nn1-c1ccc(C(F)(F)F)cc1
Ans. -12.3
